Target: PIP4K2C (Homo sapiens)
Assay: HiBiT PIP4K2C degradation assay in MOLT-4 cells (endogenous PIP4K2C C-terminally tagged with HiBiT)
Format: cell-based
Design: untagged in primary human PBMCs and monocyte-derived dendritic cells
Settings: 24 hours incubation, MOLT-4, top concentration 10 micromolar; read-out: HiBIT-degradation MOLT4 PIP4k2C 24 hours DC50
# reported DC50; entries follow

As a guide, the following entries are already answered.
INSERT INTO results (compound, readout_label, value_measured) VALUES
  ('O=C1CCC(Nc2ccc(C3CCN(CCC4CCN(C(=O)[C@H]5CC[C@H](Nc6ncc(F)c(-c7cccc(-n8ccccc8=O)c7)n6)CC5)CC4)CC3)c(F)c2)C(=O)N1 (stereo partly drawn)', 'DC50', '< 500 nM'),
  ('O=C1CCC(n2c(=O)oc3cc(C4CCN(CC5CCN(C(=O)[C@H]6CC[C@H](Nc7ncc(F)c(-c8cccc(-n9ccccc9=O)c8)n7)CC6)CC5)CC4)ccc32)C(=O)N1 (stereo partly drawn)', 'DC50', '< 500 nM');

Please find the next compound below.
Inquiry: Entry under review: Cn1c(=O)n(C2CCC(=O)NC2=O)c2ccc(C3CCN(C4CCN(CC(=O)N5CCC(Nc6ncc(Cl)c(-c7cccc(-c8ccccc8)c7)n6)CC5)CC4)CC3)cc21 (stereo not drawn) . Reported DC50?
Reply text: < 500 nM

---

# reported DC50; entries follow
Target: PIP4K2C (Homo sapiens)
Sequence (Q8TBX8 1-421): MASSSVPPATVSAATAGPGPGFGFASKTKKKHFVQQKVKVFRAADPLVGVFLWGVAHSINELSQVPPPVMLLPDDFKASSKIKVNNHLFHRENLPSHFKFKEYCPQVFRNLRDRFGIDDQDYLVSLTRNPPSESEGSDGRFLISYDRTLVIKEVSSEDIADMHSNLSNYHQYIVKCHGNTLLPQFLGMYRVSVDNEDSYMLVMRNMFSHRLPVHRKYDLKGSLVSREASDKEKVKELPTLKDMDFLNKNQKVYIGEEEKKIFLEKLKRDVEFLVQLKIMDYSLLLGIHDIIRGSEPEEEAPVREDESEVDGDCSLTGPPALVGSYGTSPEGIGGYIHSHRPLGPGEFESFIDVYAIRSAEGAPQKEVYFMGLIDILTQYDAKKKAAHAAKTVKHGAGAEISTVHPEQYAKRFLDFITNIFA
Assay: HiBiT PIP4K2C degradation assay in MOLT-4 cells (endogenous PIP4K2C C-terminally tagged with HiBiT)
Assay type: cell-based
Design: untagged in primary human PBMCs and monocyte-derived dendritic cells
Conditions: 24 hours incubation, MOLT-4, top concentration 10 micromolar; read-out: HiBIT-degradation MOLT4 PIP4k2C 24 hours DC50

As a guide, the following entries are already answered.
INSERT INTO assay_data (molecule, value_measured) VALUES
  ('O=C1CCC(Nc2ccc(N3CCN([C@H]4CC[C@H](C(=O)N[C@H]5CC[C@H](Nc6ncc(F)c(-c7cccc(-n8ccccc8=O)c7)n6)CC5)CC4)CC3)c(F)c2)C(=O)N1 (some centres unmarked) [Compound 319]', '< 500 nM'),
  ('O=C1CCC(Nc2ccc(C3CCN(CCC4(O)CCN(C(=O)[C@H]5CCC[C@@H](Nc6ncc(F)c(-c7cccc(-n8ccccc8=O)c7)n6)C5)CC4)CC3)c(F)c2)C(=O)N1 (relative stereo) [Compound 348]', '< 500 nM'),
  ('Cn1nc(C2CCC(=O)NC2=O)c2ccc(C3CCN(CC4CCN(CC(=O)N[C@H]5CC[C@H](Nc6ncc(F)c(-c7cccc(-n8ccccc8=O)c7)n6)CC5)CC4)CC3)cc21 (some centres unmarked) [Compound 304]', '< 500 nM');

Inquiry: Entry under review: O=C1CCC(n2c(=O)oc3cc(N4CCC(CN5CCC(O)(CC(=O)N6CCC(Nc7ncc(F)c(-c8cccc(-n9ccccc9=O)c8)n7)CC6)CC5)CC4)ccc32)C(=O)N1 (centres unmarked) [Compound 380] . Reported DC50?
Reply text: < 500 nM

Inquiry: Entry under review: O=C1CCC(Nc2ccc(N3CCN(CC4CCN(CC(=O)N[C@H]5CC[C@H](Nc6ncc(F)c(-c7cccc(-n8ccccc8=O)c7)n6)CC5)CC4)CC3)c(F)c2)C(=O)N1 (some centres unmarked) [Compound 326] . Reported DC50?
Reply text: < 500 nM
